measured on: rat liver TrxR (Rattus norvegicus, UniProt O89049)
Sequence (O89049 1-499): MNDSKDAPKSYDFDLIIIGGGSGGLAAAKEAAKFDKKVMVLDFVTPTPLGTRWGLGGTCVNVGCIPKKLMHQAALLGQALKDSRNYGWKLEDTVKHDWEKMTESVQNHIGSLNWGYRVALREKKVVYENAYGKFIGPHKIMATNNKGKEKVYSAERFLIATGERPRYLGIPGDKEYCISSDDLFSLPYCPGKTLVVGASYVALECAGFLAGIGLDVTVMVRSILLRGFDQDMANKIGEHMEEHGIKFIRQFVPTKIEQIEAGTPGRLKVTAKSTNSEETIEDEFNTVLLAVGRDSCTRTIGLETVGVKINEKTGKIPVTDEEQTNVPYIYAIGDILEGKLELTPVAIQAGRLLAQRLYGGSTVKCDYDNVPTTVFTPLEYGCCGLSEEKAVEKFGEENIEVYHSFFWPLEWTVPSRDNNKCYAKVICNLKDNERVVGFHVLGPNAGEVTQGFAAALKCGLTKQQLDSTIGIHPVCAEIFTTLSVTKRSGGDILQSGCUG
procedure text: Thioredoxin reductase inhibition, DTNB reduction assay
conditions: read-out: IC50 TrxR; DTNB reduction assay, exposure time 30 min
reported endpoint: IC50 (nM)

- molecule: "CN(C)C1=[NH+][Au-]2([NH]C(N)=N1)[c]1ccccc1C(=O)c1cccc[n+]12.F[P-](F)(F)(F)(F)F (stereo not shown)"
  reported endpoint: "IC50"
  result: 1.3

* * *

Tested on: A2780cisR (ovarian carcinoma)
procedure text: MTT cytotoxicity assay, A2780cisR
conditions: read-out: EC50 A2780cisR; MTT assay, exposure time 72 hours
Entries whose EC50 is below 4 µM take TRUE; entries at or above 4 µM take FALSE.

- molecule: "N.N.[Cl][Pt][Cl] [Cisplatin]"
  qualitative label: "FALSE"
- molecule: "O=C1c2cccc[c]2[Au-]([Cl])([Cl])[n+]2ccccc21"
  qualitative label: "FALSE"
- molecule: "CN(C)C1=[NH+][Au-]2([NH]C(N)=N1)[c]1ccccc1C(=O)c1cccc[n+]12.F[P-](F)(F)(F)(F)F (centres unmarked)"
  qualitative label: "TRUE"
- molecule: "[Cl][Au-]1([Cl])[c]2ccccc2Cc2cccc[n+]21"
  qualitative label: "FALSE"

* * *

Test system: MDA-MB-231 cells
procedure text: Cellular accumulation of Au by ICP-MS
conditions: ICP-MS after 24 hour exposure at 1.4 μM
Let's look at some compounds and their measured Cellular accumulation MDA-MB-231.

- compound: "O=C1c2cccc[c]2[Au-]([Cl])([Cl])[n+]2ccccc21"
  Cellular accumulation MDA-MB-231, nmol Au/mg protein: 0.14
- compound: "[Cl][Au-]1([Cl])[c]2ccccc2-c2cccc[n+]21"
  Cellular accumulation MDA-MB-231, nmol Au/mg protein: 0.36
- compound: "CN(C)C1=[NH+][Au-]2([NH]C(N)=N1)[c]1ccccc1C(=O)c1cccc[n+]12.F[P-](F)(F)(F)(F)F (stereo not shown)"
  Cellular accumulation MDA-MB-231, nmol Au/mg protein: 1.37
- compound: "[Cl][Au-]1([Cl])[c]2ccccc2Cc2cccc[n+]21"
  Cellular accumulation MDA-MB-231, nmol Au/mg protein: 0.14

* * *

measured on: rat liver TrxR (Rattus norvegicus)
procedure text: Thioredoxin reductase inhibition, DTNB reduction assay
pIC50: −log10 of the molar value.
reported endpoint: pIC50

- compound: "CN(C)C1=[NH+][Au-]2([NH]C(N)=N1)[c]1ccccc1-c1cccc[n+]12 (stereo not drawn)"
  result: 8.92
- compound: "NC1=NC(NCCc2ccccc2)=[NH+][Au-]2([NH]1)[c]1ccccc1-c1cccc[n+]12 (stereo not drawn)"
  result: 8.51
- compound: "CN(C)C1=[NH+][Au-]2([NH]C(N)=N1)[c]1ccccc1Cc1cccc[n+]12 (stereo not drawn)"
  result: 9.26
